The reported numbers originate from patent US20220281841A1.

- study system: ROCK2 (Homo sapiens)
- Construct: purchased DiscoverX (KINOMEscan KdELECT service); host or cells: E. coli BL21-derived (T7 phage) or HEK-293
- Sequence (O75116 whole entry): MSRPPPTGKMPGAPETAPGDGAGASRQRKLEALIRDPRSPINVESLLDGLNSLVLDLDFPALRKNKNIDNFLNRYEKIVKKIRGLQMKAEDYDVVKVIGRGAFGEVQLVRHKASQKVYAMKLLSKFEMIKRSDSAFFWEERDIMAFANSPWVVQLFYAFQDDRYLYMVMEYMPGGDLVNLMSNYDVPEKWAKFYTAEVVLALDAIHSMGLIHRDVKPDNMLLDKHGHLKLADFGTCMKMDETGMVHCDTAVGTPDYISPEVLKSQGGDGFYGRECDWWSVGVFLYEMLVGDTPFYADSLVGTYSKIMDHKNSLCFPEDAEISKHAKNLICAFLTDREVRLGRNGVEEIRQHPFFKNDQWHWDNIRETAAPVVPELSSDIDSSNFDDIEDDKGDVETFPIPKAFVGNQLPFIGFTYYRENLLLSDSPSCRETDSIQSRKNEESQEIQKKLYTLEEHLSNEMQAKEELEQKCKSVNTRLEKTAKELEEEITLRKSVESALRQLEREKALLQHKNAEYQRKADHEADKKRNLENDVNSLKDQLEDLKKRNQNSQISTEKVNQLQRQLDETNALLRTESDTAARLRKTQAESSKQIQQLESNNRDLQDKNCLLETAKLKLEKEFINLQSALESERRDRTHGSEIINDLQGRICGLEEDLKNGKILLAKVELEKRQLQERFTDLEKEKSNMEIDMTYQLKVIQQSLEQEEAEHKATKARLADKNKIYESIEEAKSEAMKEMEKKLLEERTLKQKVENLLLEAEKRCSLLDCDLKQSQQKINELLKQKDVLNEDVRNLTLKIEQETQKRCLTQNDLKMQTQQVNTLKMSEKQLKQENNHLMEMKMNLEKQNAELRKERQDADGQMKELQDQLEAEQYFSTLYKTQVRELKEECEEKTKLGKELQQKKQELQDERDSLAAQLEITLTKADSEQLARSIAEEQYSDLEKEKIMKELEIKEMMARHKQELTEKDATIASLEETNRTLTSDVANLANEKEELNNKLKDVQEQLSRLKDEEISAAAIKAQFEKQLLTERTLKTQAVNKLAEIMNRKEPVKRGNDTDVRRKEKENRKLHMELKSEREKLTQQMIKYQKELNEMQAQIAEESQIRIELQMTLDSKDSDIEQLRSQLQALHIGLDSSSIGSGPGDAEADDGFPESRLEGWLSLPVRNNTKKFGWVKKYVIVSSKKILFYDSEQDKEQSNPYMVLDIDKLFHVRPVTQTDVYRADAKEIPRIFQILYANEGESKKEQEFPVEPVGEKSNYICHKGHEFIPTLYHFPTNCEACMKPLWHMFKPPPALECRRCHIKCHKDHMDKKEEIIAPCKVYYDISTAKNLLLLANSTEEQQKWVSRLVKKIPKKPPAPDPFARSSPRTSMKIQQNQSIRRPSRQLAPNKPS
- experimental details: ROCK2 kinase binding affinity, DiscoverX KINOMEscan KdELECT
// Kd lookup, one value per entry
readout name: Kd (µM)

[
  {
    "molecular string": "Fc1ccc2c(c1)CN(c1nccc(-c3cccc(C#Cc4cc(F)c5[nH]ncc5c4)n3)n1)C2",
    "quantitative readout": 6.8
  },
  {
    "molecular string": "COc1ccc2c(c1)CN(c1nccc(-c3cccc(C#Cc4cc(F)c5[nH]ncc5c4)n3)n1)C2",
    "quantitative readout": 2.8
  }
]

====

- study system: ROCK2 (Homo sapiens)
- Construct: purchased DiscoverX (KINOMEscan KdELECT service); host or cells: E. coli BL21-derived (T7 phage) or HEK-293
- experimental details: ROCK2 kinase binding affinity, DiscoverX KINOMEscan KdELECT
- particulars: equilibrium dissociation constant, 11-point 3-fold dilution series; read-out: Kd (μM) ROCK2
Structures can show the parent of a compound that is named as a salt.
// Kd lookup, one value per entry

[
  {
    "compound": "C(#Cc1ccnc(-c2ccnc(N3CCN(c4ncc[nH]4)CC3)n2)n1)c1ccc2[nH]ncc2c1",
    "measure unit": "µM",
    "limit operator": "=",
    "Kd": 0.32
  },
  {
    "compound": "COc1ccc2c(c1)CN(c1nccc(-c3nccc(C#Cc4ccc5c(c4)CNC5=O)n3)n1)C2",
    "measure unit": "µM",
    "limit operator": ">",
    "Kd": 30
  },
  {
    "compound": "Fc1ccc(N2CCN(c3nccc(-c4nccc(C#Cc5ccc6[nH]ncc6c5)n4)n3)CC2)cc1",
    "measure unit": "µM",
    "limit operator": "=",
    "Kd": 0.08
  },
  {
    "compound": "COCCN1CCN(c2cc3c(cn2)CN(c2nccc(-c4nccc(C#Cc5ccc6[nH]ncc6c5)n4)n2)C3)CC1 [Ex. 36, trifluoroacetate salt]",
    "measure unit": "µM",
    "limit operator": "=",
    "Kd": 0.0095
  },
  {
    "compound": "CN1CCN(c2ccc3c(c2)CN(c2nccc(-c4cc(F)cc(C#Cc5ccc6[nH]ncc6c5)c4)n2)C3)CC1",
    "measure unit": "µM",
    "limit operator": ">",
    "Kd": 30
  },
  {
    "compound": "CN(C)CCOc1ccc2c(c1)CN(c1nccc(-c3cc(F)cc(C#Cc4ccc5[nH]ncc5c4)c3)n1)C2",
    "measure unit": "µM",
    "limit operator": ">",
    "Kd": 30
  },
  {
    "compound": "Fc1ccc2c(c1)CN(c1nccc(-c3cccc(C#Cc4ccc5[nH]ncc5c4)n3)n1)C2",
    "measure unit": "µM",
    "limit operator": "=",
    "Kd": 5.5
  }
]

====

- study system: ROCK1 (Homo sapiens, UniProt Q13464)
- Construct: purchased DiscoverX (KINOMEscan KdELECT service); host or cells: E. coli BL21-derived (T7 phage) or HEK-293
- Sequence (Q13464 whole entry): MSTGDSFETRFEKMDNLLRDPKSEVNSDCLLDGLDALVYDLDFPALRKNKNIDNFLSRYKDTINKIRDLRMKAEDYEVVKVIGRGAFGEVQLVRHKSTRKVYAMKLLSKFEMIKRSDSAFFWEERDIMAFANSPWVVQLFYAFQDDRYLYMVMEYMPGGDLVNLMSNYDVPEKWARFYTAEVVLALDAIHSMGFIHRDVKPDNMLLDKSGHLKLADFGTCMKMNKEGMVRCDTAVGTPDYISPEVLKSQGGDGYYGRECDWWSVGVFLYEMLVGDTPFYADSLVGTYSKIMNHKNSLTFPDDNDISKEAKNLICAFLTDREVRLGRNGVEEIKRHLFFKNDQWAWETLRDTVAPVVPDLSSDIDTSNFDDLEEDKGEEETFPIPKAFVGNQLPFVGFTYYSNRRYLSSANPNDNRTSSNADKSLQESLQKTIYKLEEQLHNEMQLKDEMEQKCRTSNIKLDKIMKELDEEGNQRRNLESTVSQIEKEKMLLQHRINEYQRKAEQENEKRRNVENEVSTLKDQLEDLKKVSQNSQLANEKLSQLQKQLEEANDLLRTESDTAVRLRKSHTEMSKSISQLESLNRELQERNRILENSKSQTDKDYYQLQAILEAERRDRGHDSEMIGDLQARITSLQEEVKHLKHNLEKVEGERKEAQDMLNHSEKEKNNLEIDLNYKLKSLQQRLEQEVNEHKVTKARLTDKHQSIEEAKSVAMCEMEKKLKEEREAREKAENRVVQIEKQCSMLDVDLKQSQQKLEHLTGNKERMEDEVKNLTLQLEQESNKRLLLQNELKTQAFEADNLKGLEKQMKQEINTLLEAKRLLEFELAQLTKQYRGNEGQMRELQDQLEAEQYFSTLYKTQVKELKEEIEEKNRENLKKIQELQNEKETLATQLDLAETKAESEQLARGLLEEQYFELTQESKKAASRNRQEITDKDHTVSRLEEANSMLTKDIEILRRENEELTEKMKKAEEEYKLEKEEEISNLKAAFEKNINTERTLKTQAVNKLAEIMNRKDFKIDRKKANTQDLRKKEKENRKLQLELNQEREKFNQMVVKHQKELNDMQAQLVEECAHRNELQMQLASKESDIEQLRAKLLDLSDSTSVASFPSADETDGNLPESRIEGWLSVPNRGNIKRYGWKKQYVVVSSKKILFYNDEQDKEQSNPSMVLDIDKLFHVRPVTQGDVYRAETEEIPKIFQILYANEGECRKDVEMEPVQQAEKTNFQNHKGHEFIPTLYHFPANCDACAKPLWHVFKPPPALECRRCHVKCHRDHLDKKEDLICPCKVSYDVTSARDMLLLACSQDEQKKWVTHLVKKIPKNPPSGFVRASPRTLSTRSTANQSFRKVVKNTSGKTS
- experimental details: ROCK1 kinase binding affinity, DiscoverX KINOMEscan KdELECT
- particulars: equilibrium dissociation constant, 11-point 3-fold dilution series
Structures can show the parent of a compound that is named as a salt.
// Kd lookup, one value per entry

[
  {
    "molecule": "C(#Cc1ccnc(-c2ccnc(N3Cc4ccc(OCCN5CCOCC5)cc4C3)n2)n1)c1ccc2[nH]ncc2c1",
    "measure unit": "µM",
    "limit operator": "=",
    "Kd": 0.64
  },
  {
    "molecule": "Oc1ccc(N2CCN(c3nccc(-c4nccc(C#Cc5ccc6[nH]ncc6c5)n4)n3)CC2)cc1",
    "measure unit": "µM",
    "limit operator": "=",
    "Kd": 13
  },
  {
    "molecule": "CC1CN(c2ccc3c(c2)CN(c2nccc(-c4nccc(C#Cc5ccc6[nH]ncc6c5)n4)n2)C3)CCO1 (stereo not shown)",
    "measure unit": "µM",
    "limit operator": "=",
    "Kd": 1.1
  },
  {
    "molecule": "COc1ccc2c(c1)CN(c1nccc(-c3nccc(C#Cc4ccc(C(=O)O)cc4)n3)n1)C2",
    "measure unit": "µM",
    "limit operator": ">",
    "Kd": 30
  },
  {
    "molecule": "Fc1ccc(C2CCN(c3nccc(-c4nccc(C#Cc5ccc6[nH]ncc6c5)n4)n3)C2)cc1 (stereo not shown)",
    "measure unit": "µM",
    "limit operator": "=",
    "Kd": 13
  },
  {
    "molecule": "Fc1ccc2c(c1)CN(c1nccc(-c3nccc(C#Cc4cnc5[nH]ncc5c4)n3)n1)C2",
    "measure unit": "µM",
    "limit operator": ">",
    "Kd": 30
  },
  {
    "molecule": "O=C(COc1ccc2c(c1)CN(c1nccc(-c3nccc(C#Cc4ccc5[nH]ncc5c4)n3)n1)C2)NC1CC1 [Ex. 46, trifluoroacetate]",
    "measure unit": "µM",
    "limit operator": "=",
    "Kd": 0.13
  },
  {
    "molecule": "Fc1ccc2c(c1)CN(c1nccc(-c3nccc(C#Cc4cc(F)c5[nH]ncc5c4)n3)n1)C2",
    "measure unit": "µM",
    "limit operator": ">",
    "Kd": 30
  },
  {
    "molecule": "FC(F)(F)c1nnc2n1CCN(c1nccc(-c3nccc(C#Cc4ccc5[nH]ncc5c4)n3)n1)C2",
    "measure unit": "µM",
    "limit operator": "=",
    "Kd": 9.9
  },
  {
    "molecule": "COc1ccc2c(c1)CN(c1nccc(-c3nccc(C#Cc4ccc5[nH]ncc5c4)n3)n1)C2",
    "measure unit": "µM",
    "limit operator": "=",
    "Kd": 0.82
  },
  {
    "molecule": "COC(=O)c1ccc(C#Cc2ccnc(-c3ccnc(N4Cc5ccc(OC)cc5C4)n3)n2)cc1",
    "measure unit": "µM",
    "limit operator": ">",
    "Kd": 30
  },
  {
    "molecule": "COc1ccc2c(c1)CN(c1nccc(-c3cccc(C#Cc4ccc5[nH]ncc5c4)n3)n1)C2",
    "measure unit": "µM",
    "limit operator": "=",
    "Kd": 25
  },
  {
    "molecule": "CN(C)CCOc1ccc2c(c1)CN(c1nccc(-c3cc(F)cc(C#Cc4ccc5[nH]ncc5c4)c3)n1)C2",
    "measure unit": "µM",
    "limit operator": ">",
    "Kd": 30
  },
  {
    "molecule": "Clc1cc2c(cn1)CN(c1nccc(-c3nccc(C#Cc4ccc5[nH]ncc5c4)n3)n1)C2",
    "measure unit": "µM",
    "limit operator": ">",
    "Kd": 6
  },
  {
    "molecule": "COc1ccc2c(c1)CN(c1nccc(-c3nccc(C#Cc4ccc5c(N)nccc5c4)n3)n1)C2",
    "measure unit": "µM",
    "limit operator": ">",
    "Kd": 30
  },
  {
    "molecule": "CN(C)CCOc1ccc2c(c1)CN(c1nccc(-c3cccc(C#Cc4ccc5[nH]ncc5c4)n3)n1)C2",
    "measure unit": "µM",
    "limit operator": ">",
    "Kd": 30
  }
]
